- Read-out: Intercellular Adhesion Molecule 1 (ICAM1), ICAM1 (gene 3383)
- measurement_notes: BSK_KF3CT_ICAM1: BioMAP Diversity Plus: KF3CT Assay for Intercellular Adhesion Molecule 1 (ICAM1) Biomarker Activity (AID 2283067)
- settings: primary human keratinocytes with fibroblasts; actives raise or lower the signal
- Procedure: BSK_KF3CT is a cell-based, multiplexed-readout assay that uses keratinocytes and foreskin fibroblasts, a human skin primary cell co-culture, with measurements taken at 24 hours after chemical dosing in a 96-well plate.BSK_KF3CT_ICAM1 is an assay component measured in the BSK_KF3CT assay. It measures ICAM-1 antibody related to regulation of gene expression using ELISA technology.Data from the assay component BSK_KF3CT_ICAM1 was analyzed into 1 assay endpoint. […]
Activity calls are given as the source filed them. Rule for the calls: active = hit-call score of the fitted dose curve at least 0.9, where 1 is the maximum; inactive = score below 0.9.
Bench note: report the call from t for active, f for inactive

>>> print(df.to_string())
                                   molecule  class_name
0  O=C1OC2(c3ccccc31)c1ccc(O)c(Br)c1Oc1c2ccc(O)c1Br           f

q: Call for entry CCCCN(CCCC)C(=O)N(CCCC)CCCC :
a: t

q: Outcome logged for CCC(C)c1cc([N+](=O)[O-])cc([N+](=O)[O-])c1OC(=O)OC(C)C (stereo unspecified) in this assay:
a: t

q: Hi, do you know how COc1ccc(OC)c(N=Nc2c(O)ccc3ccccc23)c1 came out in this test?
a: f

q: Test call, this molecule: CC(=O)Nc1ccc(C(=O)CCl)cc1
a: t

q: State the result this test recorded for CS(=O)(=O)OCCCCOS(C)(=O)=O .
a: f
